Assay: Mouse pharmacokinetics testing
Assay type: in vivo, CD1 female mice
Conditions: female, CD1, mouse, in vivo, po, 10 mg/kg
endpoint-name: half-life

Worked examples follow.
CN(C(=O)C(=O)Nc1cnc(N)c2c1cnn2C)[C@@H]1COCc2nc(C(F)(F)F)ccc21	1.1 h
CN(C(=O)C(=O)Nc1cnc(N)c2c1cnn2C)[C@@H]1COc2cc(C(F)(F)F)ccc21	1.2 h
CN(C(=O)C(=O)Nc1cnc(N)c2c1cnn2C)C1COc2cc(OC(F)(F)F)ccc21 (centres unmarked)	1.5 h
[2H]C([2H])([2H])N(C(=O)C(=O)Nc1cnc(N)c2c1cnn2C)[C@@H]1COc2cc(C(F)(F)F)ccc21	2.2 h

Consider the record given below.
input: What value of half-life has been recorded for this entry: [2H]C([2H])([2H])N(C(=O)C(=O)Nc1cnc(N)c2c1cnn2C)[C@@H]1COc2cc(SC(F)(F)F)ccc21
output: 1.7 h

----------
The entries below are paired with their reported IC50.
System: SDMA/HCT116-MTAPdel
Test: In-cell arginine symmetric dimethylation inhibition (In-cell western, ICW), MTAP-deficient cells
Format: cell-based
Details: Homo sapiens, HCT-116; HCT116 MTAP-deficient cells, 96 hours

Worked examples follow.
CN(C(=O)C(=O)Nc1cnc(N)c2c1cnn2C)[C@@H]1COc2cc(C(F)(F)F)ccc21 [Compound P2a]	0.5 nM
[2H]C([2H])([2H])N(C(=O)C(=O)Nc1cnc(N)c2c1cnn2C)[C@@H]1COc2cc(C(F)(F)F)ccc21 [Compound P22]	0.2 nM

input: Form: Entry = [2H]C([2H])([2H])N(C(=O)C(=O)Nc1cnc(N)c2c1cnn2C)[C@@H]1COc2cc(SC(F)(F)F)ccc21 [Compound P32] | System = SDMA/HCT116-MTAPdel | IC50 = ____
output: 0.3 nM

input: Form: Entry = Cc1cc(NC(=O)C(=O)N2C[C@@H](C)CC[C@@H]2c2ccc3scnc3c2)cnc1N [TNG908, reference compound] | System = SDMA/HCT116-MTAPdel | IC50 = ____
output: 2.6 nM

----------
Test: Mouse pharmacokinetics testing
Assay type: in vivo, CD1 female mice
Conditions: mouse, in vivo, po, 10 mg/kg
Method: CD1 female mice were used as test animals and administered the compounds orally/intravenously (oral dosage was 10 mg/kg and intravenous dosage was 2 mg/kg). Test protocol: Each oral and intravenous group consisted of three mice. […] Plasma drug concentrations after oral and intravenous administration were determined by LC/MS/MS, and the collected data analyzed using AB Sciex QTRAP 6500 software.
endpoint-name: Tmax
# answer = value followed by unit

input: What value of Tmax has been recorded for this entry: CCN(C(=O)C(=O)Nc1cnc(N)c2c1cnn2C)[C@@H]1COc2cc(C(F)(F)F)ccc21 [Compound P19a]
output: 30 min

----------
Test system: SDMA/HCT116-MTAPdel
Assay: In-cell arginine symmetric dimethylation inhibition (In-cell western, ICW), MTAP-deficient cells
Format: cell-based
Conditions: Homo sapiens, HCT-116; HCT116 MTAP-deficient cells, 96 hours
Protocol: 60 nL of different concentrations of compounds were added to each well using an Echo, and incubated at 37°C, 5% CO2 for 96 hours. […] The sdme-RG and DRAQ5 signals were scanned at 800 nm and 700 nm respectively on a Li-Cor Odyssey instrument and the signal values recorded. The sdme-RG/DRAQ5 ratio was used to calculate the percentage inhibition of arginine symmetric dimethylation (SDMA), and the IC50 value calculated using GraphPad Prism software.
endpoint-name: IC50 (nM)
Give the number; nM is assumed, so skip it.

Worked examples follow.
C[C@H]1CC[C@H](c2ccc3scnc3c2)N(C(=O)C(=O)Nc2cnc(N)c3c2cnn3C)C1 [Compound P3b]	0.6
CN(C(=O)C(=O)Nc1cnc(N)c2c1cnn2C)[C@@H]1COCc2nc(C(F)(F)F)ccc21 [Compound P9a]	0.9
Cc1cc2cc(C(=O)N(Cc3ccc(C(F)(F)F)cn3)[C@H](C)c3ncccn3)ccc2nc1N [AM9747, reference compound]	0.6

input: What value of IC50 has been recorded for this entry: CN(C(=O)C(=O)Nc1cnc(N)c2c1cnn2C)[C@@H]1COc2cc(SC(F)(F)F)ccc21 [Compound P29a]
output: 0.4
